Emax of OD450 nm binding value values by entry
System: human DLL1 protein (Acro, Cat. No. DL1-H52H8) (human) (UniProt O00548)
Sequence (O00548 18-540 limits assumed): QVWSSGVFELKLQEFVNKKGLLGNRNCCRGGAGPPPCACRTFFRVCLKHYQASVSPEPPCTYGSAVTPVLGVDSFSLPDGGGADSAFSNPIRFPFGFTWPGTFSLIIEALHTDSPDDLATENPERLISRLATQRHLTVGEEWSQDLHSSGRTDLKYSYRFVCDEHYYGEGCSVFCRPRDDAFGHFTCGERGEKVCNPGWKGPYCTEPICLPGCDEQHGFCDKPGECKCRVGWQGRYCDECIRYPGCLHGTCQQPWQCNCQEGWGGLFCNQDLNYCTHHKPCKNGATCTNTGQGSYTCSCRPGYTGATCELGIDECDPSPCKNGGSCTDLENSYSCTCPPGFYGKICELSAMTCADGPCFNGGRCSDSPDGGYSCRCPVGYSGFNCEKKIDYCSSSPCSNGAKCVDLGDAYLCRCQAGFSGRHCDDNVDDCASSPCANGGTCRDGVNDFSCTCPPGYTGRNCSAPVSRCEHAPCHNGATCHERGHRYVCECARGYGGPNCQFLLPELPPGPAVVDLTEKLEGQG
Assay notes: ELISA, coated hDLL1; maximum over 0.1, 1, 10, 100 nM antibody
Write the answer as a number in OD450 nm, unit excluded.

Consider the worked cases shown below.
Hab014VL2VH1-hFc (scFv, part only; not given: scFv linker and human IgG1 Fc, V domains shown, not shown: another chain or arm of the molecule; a dimerising Fc or GST; small tags and cut ends) VL: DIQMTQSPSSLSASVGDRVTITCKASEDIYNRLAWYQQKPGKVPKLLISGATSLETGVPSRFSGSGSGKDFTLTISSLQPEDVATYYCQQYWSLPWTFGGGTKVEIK VH: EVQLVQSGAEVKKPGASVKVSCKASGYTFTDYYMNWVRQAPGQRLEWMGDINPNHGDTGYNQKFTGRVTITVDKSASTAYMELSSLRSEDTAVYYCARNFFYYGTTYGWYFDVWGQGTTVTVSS | 0.17
Hab008L1H5-hFc (scFv, part only; not given: VL-VH linker and human IgG1 Fc, V domains shown, not shown: another chain or arm of the molecule; a dimerising Fc or GST; small tags and cut ends) VL: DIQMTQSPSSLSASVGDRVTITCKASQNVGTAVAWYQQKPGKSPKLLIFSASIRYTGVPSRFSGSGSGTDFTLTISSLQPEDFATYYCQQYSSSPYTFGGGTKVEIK VH: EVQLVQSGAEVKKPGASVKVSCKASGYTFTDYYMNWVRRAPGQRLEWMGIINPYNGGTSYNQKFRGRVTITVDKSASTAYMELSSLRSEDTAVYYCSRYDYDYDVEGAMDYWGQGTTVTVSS | 0.24

Then this binder:
Report Emax of OD450 nm binding value, nothing else, for this binder: Hab015VL5VH6a-hFc (scFv, part only; not given: scFv linker and human IgG1 Fc, V domains shown, not shown: another chain or arm of the molecule; a dimerising Fc or GST; small tags and cut ends) VL: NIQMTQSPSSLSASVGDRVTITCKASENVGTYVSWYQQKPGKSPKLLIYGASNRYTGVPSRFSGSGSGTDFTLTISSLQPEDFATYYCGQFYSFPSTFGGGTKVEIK VH: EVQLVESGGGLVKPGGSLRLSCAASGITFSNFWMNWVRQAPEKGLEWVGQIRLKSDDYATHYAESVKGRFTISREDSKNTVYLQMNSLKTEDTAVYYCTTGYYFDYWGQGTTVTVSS
0.71
